procedure summary: AUC (0 to infinity) in fasted state healthy human at 100 mg, po administered as single dose
Assay type: ADME, organism-based
Parameters: dose 100 mg, time infinity, route oral
condition summary: plasma

{"compound": "COP(=O)(c1cc(C)cc(/C=C/C#N)c1)c1c(C(N)=O)[nH]c2ccc(Cl)cc12 (stereo unspecified)", "AUC(0-inf)": "15800 ng·h/mL"}

###

procedure summary: Cmax in healthy human at 800 mg, po qd after 7 days
Format: ADME, organism-based
Set-up: dose 800 mg, route oral
condition summary: in vivo

{"compound": "COP(=O)(c1cc(C)cc(/C=C/C#N)c1)c1c(C(N)=O)[nH]c2ccc(Cl)cc12 (stereo unspecified)", "Cmax, ng/mL": 4600}

###

procedure summary: Tmax in fasted state healthy human at 200 mg, po administered as single dose
Type: ADME, organism-based
condition summary: in vivo
measurement type: Tmax (h)

{"compound": "COP(=O)(c1cc(C)cc(/C=C/C#N)c1)c1c(C(N)=O)[nH]c2ccc(Cl)cc12 (stereo unspecified)", "endpoint result": 1.5}

###

procedure summary: AUC (0 to infinity) in fed state healthy human at 800 mg, po administered as single dose
Format: ADME, organism-based
Parameters: dose 800 mg, time infinity, route oral
condition summary: plasma
measurement type: AUC(0-inf) (ng·h/mL)

{"compound": "COP(=O)(c1cc(C)cc(/C=C/C#N)c1)c1c(C(N)=O)[nH]c2ccc(Cl)cc12 (stereo unspecified)", "endpoint result": 47200}

###

procedure summary: Half life in fed state healthy human at 200 mg, po administered as single dose
Assay type: ADME, organism-based
condition summary: in vivo
measurement type: half-life (h)

{"compound": "COP(=O)(c1cc(C)cc(/C=C/C#N)c1)c1c(C(N)=O)[nH]c2ccc(Cl)cc12 (stereo unspecified)", "measurement type": "half-life", "endpoint result": 9.5}

###

procedure summary: Cmax in fasted state healthy human at 100 mg, po administered as single dose
Assay type: ADME, organism-based
Parameters: dose 100 mg, route oral
condition summary: in vivo

{"compound": "COP(=O)(c1cc(C)cc(/C=C/C#N)c1)c1c(C(N)=O)[nH]c2ccc(Cl)cc12 (stereo unspecified)", "units": "ng/mL", "Cmax": 3000}

###

procedure summary: Apparent total plasma clearance in fasted state healthy human at 200 mg, po administered as single dose
Type: ADME, organism-based

{"compound": "COP(=O)(c1cc(C)cc(/C=C/C#N)c1)c1c(C(N)=O)[nH]c2ccc(Cl)cc12 (stereo unspecified)", "CL/F, mL/min": 555}

###

procedure summary: Cmax in fed state female healthy human at 400 mg, po administered as single dose
Format: ADME, organism-based
Set-up: dose 400 mg, route oral
condition summary: in vivo

{"compound": "COP(=O)(c1cc(C)cc(/C=C/C#N)c1)c1c(C(N)=O)[nH]c2ccc(Cl)cc12 (stereo unspecified)", "Cmax / ng/mL": 1900}

###

procedure summary: Half life in healthy human at 800 mg, po qd after 1 day
Type: ADME, organism-based
condition summary: in vivo
measurement type: half-life

{"compound": "COP(=O)(c1cc(C)cc(/C=C/C#N)c1)c1c(C(N)=O)[nH]c2ccc(Cl)cc12 (stereo unspecified)", "endpoint result": "8.3 h"}

###

procedure summary: Apparent total volume of distribution in fed state healthy human at 800 mg, po administered as single dose
Assay type: ADME, organism-based
condition summary: in vivo, read-out: Vz/F

{"compound": "COP(=O)(c1cc(C)cc(/C=C/C#N)c1)c1c(C(N)=O)[nH]c2ccc(Cl)cc12 (stereo unspecified)", "Vd/F, L": 301}

###

procedure summary: Apparent total volume of distribution in fasted state healthy human at 100 mg, po administered as single dose
Format: ADME, organism-based
condition summary: in vivo, read-out: Vz/F

{"compound": "COP(=O)(c1cc(C)cc(/C=C/C#N)c1)c1c(C(N)=O)[nH]c2ccc(Cl)cc12 (stereo unspecified)", "Vd/F": "66.3 L"}

###

procedure summary: Plasma concentration in fed state healthy human at 1200 mg, po administered as single dose after 24 hrs
Type: ADME, organism-based

{"compound": "COP(=O)(c1cc(C)cc(/C=C/C#N)c1)c1c(C(N)=O)[nH]c2ccc(Cl)cc12 (stereo unspecified)", "concentration at 24 h / ng/mL": 2020}

###

procedure summary: Plasma concentration in fasted state healthy human at 100 mg, po administered as single dose after 24 hrs
Format: ADME, organism-based

{"molecule": "COP(=O)(c1cc(C)cc(/C=C/C#N)c1)c1c(C(N)=O)[nH]c2ccc(Cl)cc12 (stereo unspecified)", "concentration at 24 h [ng/mL]": 90}

###

procedure summary: Cmax in fasted state healthy human at 50 mg, po administered as single dose
Type: ADME, organism-based
Design: dose 50 mg, route oral
condition summary: in vivo
measurement type: Cmax

{"compound": "COP(=O)(c1cc(C)cc(/C=C/C#N)c1)c1c(C(N)=O)[nH]c2ccc(Cl)cc12 (stereo unspecified)", "endpoint result": "1600 ng/mL"}

###

procedure summary: Cmax in fed state healthy human at 400 mg, po administered as single dose
Format: ADME, organism-based
Design: dose 400 mg, route oral
condition summary: in vivo
measurement type: Cmax (ng/mL)

{"molecule": "COP(=O)(c1cc(C)cc(/C=C/C#N)c1)c1c(C(N)=O)[nH]c2ccc(Cl)cc12 (stereo unspecified)", "measurement type": "Cmax", "endpoint result": 2400}

###

procedure summary: Half life in fed state healthy human at 800 mg, po administered as single dose
Assay type: ADME, organism-based
condition summary: in vivo

{"molecule": "COP(=O)(c1cc(C)cc(/C=C/C#N)c1)c1c(C(N)=O)[nH]c2ccc(Cl)cc12 (stereo unspecified)", "units": "h", "half-life": 11.5}

###

procedure summary: Cmax in fed state healthy human at 1200 mg, po administered as single dose
Format: ADME, organism-based
Parameters: dose 1200 mg, route oral
condition summary: in vivo
measurement type: Cmax (ng/mL)

{"molecule": "COP(=O)(c1cc(C)cc(/C=C/C#N)c1)c1c(C(N)=O)[nH]c2ccc(Cl)cc12 (stereo unspecified)", "endpoint result": 5600}

###

procedure summary: Plasma concentration in fed state healthy human at 200 mg, po administered as single dose after 24 hrs
Type: ADME, organism-based
measurement type: concentration at 24 h (ng/mL)

{"molecule": "COP(=O)(c1cc(C)cc(/C=C/C#N)c1)c1c(C(N)=O)[nH]c2ccc(Cl)cc12 (stereo unspecified)", "measurement type": "concentration at 24 h", "endpoint result": 190}

###

procedure summary: Half life in healthy human at 800 mg, po qd after 7 days
Format: ADME, organism-based
condition summary: in vivo
measurement type: half-life (h)

{"compound": "COP(=O)(c1cc(C)cc(/C=C/C#N)c1)c1c(C(N)=O)[nH]c2ccc(Cl)cc12 (stereo unspecified)", "endpoint result": 13.6}

###

procedure summary: AUC (0 to infinity) in fed state healthy human at 200 mg, po administered as single dose
Type: ADME, organism-based
Design: dose 200 mg, route oral, time infinity
condition summary: plasma
measurement type: AUC(0-inf)

{"compound": "COP(=O)(c1cc(C)cc(/C=C/C#N)c1)c1c(C(N)=O)[nH]c2ccc(Cl)cc12 (stereo unspecified)", "measurement type": "AUC(0-inf)", "endpoint result": "16800 ng·h/mL"}

###

procedure summary: Cmax in healthy human at 400 mg, po bid after 7 days
Type: ADME, organism-based
Parameters: dose 400 mg, route oral
condition summary: in vivo

{"molecule": "COP(=O)(c1cc(C)cc(/C=C/C#N)c1)c1c(C(N)=O)[nH]c2ccc(Cl)cc12 (stereo unspecified)", "Cmax (ng/mL)": 4000}

###

procedure summary: Apparent total plasma clearance in fed state healthy human at 400 mg, po administered as single dose
Assay type: ADME, organism-based
measurement type: CL/F (mL/min)

{"molecule": "COP(=O)(c1cc(C)cc(/C=C/C#N)c1)c1c(C(N)=O)[nH]c2ccc(Cl)cc12 (stereo unspecified)", "measurement type": "CL/F", "endpoint result": 215}

###

procedure summary: Trough plasma concentration in healthy human at 800 mg, po qd after 7 days
Type: ADME, organism-based
condition summary: read-out: Cmin
measurement type: concentration at 168 h (ng/mL)

{"compound": "COP(=O)(c1cc(C)cc(/C=C/C#N)c1)c1c(C(N)=O)[nH]c2ccc(Cl)cc12 (stereo unspecified)", "units": "ng/mL", "endpoint result": 900}

###

procedure summary: Tmax in fed state healthy human at 200 mg, po administered as single dose
Assay type: ADME, organism-based
condition summary: in vivo

{"compound": "COP(=O)(c1cc(C)cc(/C=C/C#N)c1)c1c(C(N)=O)[nH]c2ccc(Cl)cc12 (stereo unspecified)", "units": "h", "Tmax": 7}
